Tested on: Escherichia coli TOP10;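 further: peptides expressed intracellularly from a pBAD plasmid library in pooled LB shake-flask culture, induced with 0.3% L-arabinose, DNA abundance read by NGS, three biological replicates, DESeq2 with apeglm shrinkage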
Test: shrunken log2 fold change of peptide-encoding DNA abundance (4.5 h post-induction vs induction); higher = less antimicrobial activity (less host growth inhibition)
Settings: time post-induction: 4.5 h; library: site-saturation at positions 5, 18, 19, 20
shrunken log2 fold change values by entry
reported_endpoint: shrunken log2 fold change

>>> quantitative_result("RRIRDRPPRLPRPRPRPRLCPRP")
0.265
>>> quantitative_result("RRIRIRPPRLPRPRPRPLFEPRP")
-0.251
>>> quantitative_result("RRIRSRPPRLPRPRPRPCNVPRP")
-0.175
>>> quantitative_result("RRIRVRPPRLPRPRPRPSHVPRP")
-0.0313
>>> quantitative_result("RRIRERPPRLPRPRPRPNQHPRP")
-0.228
>>> quantitative_result("RRIRVRPPRLPRPRPRPREQPRP")
0.0561
>>> quantitative_result("RRIRVRPPRLPRPRPRPMMWPRP")
-0.368
>>> quantitative_result("RRIRQRPPRLPRPRPRPSLYPRP")
-0.233
>>> quantitative_result("RRIRLRPPRLPRPRPRPMVQPRP")
-0.147
>>> quantitative_result("RRIRLRPPRLPRPRPRPLNNPRP")
-0.593
>>> quantitative_result("RRIRQRPPRLPRPRPRPEKPPRP")
-0.129
>>> quantitative_result("RRIRIRPPRLPRPRPRPCNRPRP")
-0.425
>>> quantitative_result("RRIRFRPPRLPRPRPRPFPDPRP")
-0.137
>>> quantitative_result("RRIRKRPPRLPRPRPRPISTPRP")
-0.218
>>> quantitative_result("RRIRIRPPRLPRPRPRPNFNPRP")
-0.745
